ASSAY SUMMARY: Cytotoxicity against mouse BA/F3 cells expressing wild type Bcr-Abl
Format: functional, cell-based
APPLIED CONDITIONS: BaF3
VALUE TYPE: EC50 (nM)
Use nM as the unit, but write only the number.

CCN1CCN(Cc2ccc(NC(=O)Nc3cccc(-c4ccc5nc(NC(=O)C6CC6)sc5n4)c3)cc2C(F)(F)F)CC1 18

Q) Note EC50 for the compound shown: Cc1cn(-c2cc(NC(=O)c3ccc(C)c(-c4ccc5nc(NC(=O)C6CC6)sc5n4)c3)cc(C(F)(F)F)c2)cn1
A) 30

Q) Give recorded EC50. CC(=O)Nc1nc2ccc(-c3cccc(C(=O)Nc4cccc(C(F)(F)F)c4)c3)nc2s1
A) 5000

Q) Name the recorded EC50 of the compound listed here: Cc1cn(-c2cc(NC(=O)Nc3cccc(-c4ccc5nc(NC(=O)C6CC6)sc5n4)c3)cc(C(F)(F)F)c2)cn1
A) 1240
